Source of measurements: patent US6737383B1

tested on: velvetleaf; test: Test B pre/postemergence velvetleaf; format: in vivo, Abutilon theophrasti; details: Preemergence, Rate 500 g/ha; scale of 0 to 10 where 0 is no effect and 10 is complete control
Below: a set of entries, each annotated with reported Plant response rating, Velvetleaf.
measure: Plant response rating, Velvetleaf

In [3]: df
Out[3]:
                                   compound  val
0  CC(C)N(C(=O)n1oc(=O)n(CSC#N)c1=O)c1ccc(F)cc1    0
1  CC[C@H](C)n1c(=O)on(C(=O)N(c2ccc(F)cc2F)C(C)C)c1=O    8
2  C=C(Cc1ccccc1)Cn1c(=O)on(C(=O)N(c2ccccc2)C(C)C)c1=O    0
3  CC(C)N(C(=O)n1oc(=O)n(CC2CCCCO2)c1=O)c1ccccc1 (centres unmarked)    7
4  CC(C)N(C(=O)n1oc(=O)n(C(CF)CF)c1=O)c1ccc(F)cc1F    9
5  CC[C@H](C)n1c(=O)on(C(=O)N(c2ccc(Cl)cc2)C(C)C)c1=O    5
6  Cc1nc(C)c(Cn2c(=O)on(C(=O)N(c3ccc(F)cc3)C(C)C)c2=O)s1    0
7  CCc1cccc(C)c1-n1c(=O)on(C(=O)N(c2ccc(F)cc2)C(C)C)c1=O    0
